System: SF-295 CNS
Assay: NCI tumour cell line growth inhibition, 48 h
value kind: TGI

# count of solved cases: 5
- compound: "Cc1nn(C(=O)c2ccc(Cl)cc2)c2c1C(c1ccc(Cl)cc1)SC(N)=N2 (stereo not given)"
  TGI: "> 10 µM"
- compound: "C=CCC1C(=O)CC2(C)C(CC=C)C(=O)CC12C (stereo not given)"
  TGI: "> 100 µM"
- compound: "NC(=O)NC(=O)c1cccc(NC(=O)CCl)c1"
  TGI: "7.71 µM"
- compound: "CC(C)(C)OC(=O)N1Cc2cc3ccccc3nc2C1CO (stereo not given)"
  TGI: "> 100 µM"
- compound: "C=C1C(C(=O)O)C1C(=O)O (stereo not given)"
  TGI: "> 100 µM"

What measured TGI is associated with CCOc1nc2sc3c(c2c(=O)n1CCSSCCn1c(OCC)nc2sc4c(c2c1=O)CCCC4)CCCC3 on SF-295 CNS? > 100 µM

Cool, now CCOP(=O)(OCC)C(NC(c1ccccc1)c1ccccc1)c1ccc(C(C)C)cc1 (stereo not given) 11.7 µM

Cool, now Cc1cnc2[nH]c(-c3ccc(Cl)cc3)cc(=O)c2c1 23 µM

Cool, now CN(C)C/C=C/C(=O)Nc1cc2c(Nc3cccc(Cl)c3F)ncnc2cc1OCCOC(F)F 15.6 µM

Cool, now CC(C)(C)OC1=C(OC(C)(C)C)C(O)(c2ccc(Cl)cc2)C1=O (stereo not given) > 100 µM
